- Test system: Escherichia coli UB1005
- Format: cell-based
- Experimental Parameters: indolicidin substitution variants (Table 4)
Residues, ends and D or L forms follow the SMILES beside them.
Readout Label: MIC E. coli (µg/mL)
Report as a plain number; the unit µg/mL is understood.

Incoming: # input compound: CC[C@H](C)[C@H](N)C(=O)N[C@@H](CC(C)C)C(=O)N1CCC[C@H]1C(=O)N[C@@H](Cc1c[nH]c2ccccc12)C(=O)N[C@@H](CCCCN)C(=O)N[C@@H](Cc1c[nH]c2ccccc12)C(=O)N1CCC[C@H]1C(=O)N[C@@H](Cc1c[nH]c2ccccc12)C(=O)N[C@@H](Cc1c[nH]c2ccccc12)C(=O)N[C@@H](CCCCN)C(=O)N[C@@H](Cc1c[nH]c2ccccc12)C(=O)N[C@@H](CCCNC(=N)N)C(=O)N[C@@H](CCCNC(=N)N)C(N)=O [HH117, ILPWKWPWWKWRR] (H-ILPWKWPWWKWRR-NH2; N-terminus assumed) ; wanted: its MIC E. coli
Outgoing: 8

Incoming: Proceed to CC[C@H](C)[C@H](N)C(=O)N[C@@H](CC(C)C)C(=O)N1CCC[C@H]1C(=O)N[C@@H](Cc1c[nH]c2ccccc12)C(=O)N[C@@H](CCCCN)C(=O)N[C@@H](Cc1c[nH]c2ccccc12)C(=O)N1CCC[C@H]1C(=O)N[C@@H](Cc1c[nH]c2ccccc12)C(=O)N[C@@H](Cc1c[nH]c2ccccc12)C(=O)N1CCC[C@H]1C(=O)N[C@@H](Cc1c[nH]c2ccccc12)C(=O)N[C@@H](CCCNC(=N)N)C(=O)N[C@@H](CCCNC(=N)N)C(N)=O [Indolicidin, ILPWKWPWWPWRR-NH2, reference compound]
Outgoing: 8

Incoming: Moving on to CC[C@H](C)[C@H](N)C(=O)N[C@@H](CC(C)C)C(=O)N1CCC[C@H]1C(=O)N[C@@H](Cc1c[nH]c2ccccc12)C(=O)N[C@@H](CCCCN)C(=O)N[C@@H](CCCCN)C(=O)N1CCC[C@H]1C(=O)N[C@@H](Cc1c[nH]c2ccccc12)C(=O)N[C@@H](Cc1c[nH]c2ccccc12)C(=O)N1CCC[C@H]1C(=O)N[C@@H](Cc1c[nH]c2ccccc12)C(=O)N[C@@H](CCCNC(=N)N)C(=O)N[C@@H](CCCNC(=N)N)C(N)=O [HH113, ILPWKKPWWPWRR] (H-ILPWKKPWWPWRR-NH2; N-terminus assumed)
Outgoing: 31

Incoming: // same read-out, input: CC[C@H](C)[C@H](N)C(=O)N[C@@H](CC(C)C)C(=O)N[C@@H](CCCCN)C(=O)N[C@@H](Cc1c[nH]c2ccccc12)C(=O)N[C@@H](CCCCN)C(=O)N[C@@H](Cc1c[nH]c2ccccc12)C(=O)N1CCC[C@H]1C(=O)N[C@@H](Cc1c[nH]c2ccccc12)C(=O)N[C@@H](Cc1c[nH]c2ccccc12)C(=O)N1CCC[C@H]1C(=O)N[C@@H](Cc1c[nH]c2ccccc12)C(=O)N[C@@H](CCCNC(=N)N)C(=O)N[C@@H](CCCNC(=N)N)C(N)=O
Outgoing: 8

* * *

- System: ESBL Klebsiella pneumonia clinical strain 63575
- Format: cell-based
Residues, ends and D or L forms follow the SMILES beside them.
Readout Label: MIC (µM)
Numbers only; they are read as µM.

Incoming: Hello, I am looking for reported MIC with ESBL Klebsiella pneumonia clinical strain 63575 for N=C(N)NCCC[C@H](NC(=O)[C@H](CCCNC(=N)N)NC(=O)[C@H](Cc1c[nH]c2ccccc12)NC(=O)[C@H](Cc1c[nH]c2ccccc12)NC(=O)[C@H](CCCCN)NC(=O)[C@H](Cc1c[nH]c2ccccc12)NC(=O)[C@H](Cc1c[nH]c2ccccc12)NC(=O)[C@H](CCCNC(=N)N)NC(=O)[C@@H](N)CCCCN)C(N)=O [HHC36, KRWWKWWRR] (H-KRWWKWWRR-NH2; N-terminus assumed) . Could you help?
Outgoing: 22

Incoming: Try the compound CC[C@H](C)[C@H](NC(=O)[C@H](Cc1c[nH]c2ccccc12)NC(=O)[C@@H](NC(=O)[C@H](Cc1c[nH]c2ccccc12)NC(=O)[C@H](CCCNC(=N)N)NC(=O)[C@H](CCCCN)NC(=O)[C@@H](N)CCCCN)C(C)C)C(=O)N[C@@H](CCCNC(=N)N)C(=O)N[C@@H](Cc1ccc(O)cc1)C(N)=O [HHC69, KKRWVWIRY] (H-KKRWVWIRY-NH2; N-terminus assumed)
Outgoing: 51

Incoming: Try this compound too: CC(C)C[C@H](NC(=O)[C@H](Cc1c[nH]c2ccccc12)NC(=O)[C@H](Cc1c[nH]c2ccccc12)NC(=O)[C@H](CCCCN)NC(=O)[C@H](Cc1c[nH]c2ccccc12)NC(=O)[C@H](CCCNC(=N)N)NC(=O)[C@H](CCCNC(=N)N)NC(=O)[C@H](Cc1c[nH]c2ccccc12)NC(=O)[C@@H](N)CCCNC(=N)N)C(N)=O [HHC9, RWRRWKWWL] (H-RWRRWKWWL-NH2; N-terminus assumed)
Outgoing: 11

Incoming: Likewise for N=C(N)NCCC[C@H](NC(=O)[C@H](CCCNC(=N)N)NC(=O)[C@H](CCCCN)NC(=O)[C@H](Cc1c[nH]c2ccccc12)NC(=O)[C@H](Cc1c[nH]c2ccccc12)NC(=O)[C@H](CCCCN)NC(=O)[C@H](CCCCN)NC(=O)[C@@H](N)Cc1c[nH]c2ccccc12)C(=O)N[C@@H](Cc1c[nH]c2ccccc12)C(N)=O [HHC48, WKKWWKRRW] (H-WKKWWKRRW-NH2; N-terminus assumed) ?
Outgoing: 46

Incoming: Cool, now N=C(N)NCCC[C@H](NC(=O)[C@H](Cc1c[nH]c2ccccc12)NC(=O)[C@H](CCCCN)NC(=O)[C@H](CCCCN)NC(=O)[C@H](Cc1c[nH]c2ccccc12)NC(=O)[C@H](Cc1c[nH]c2ccccc12)NC(=O)[C@H](CCCNC(=N)N)NC(=O)[C@H](CCCCN)NC(=O)[C@@H](N)Cc1c[nH]c2ccccc12)C(N)=O [HHC45, WKRWWKKWR] (H-WKRWWKKWR-NH2; N-terminus assumed)
Outgoing: 46

Incoming: Can you handle CC[C@H](C)[C@H](N)C(=O)N[C@@H](Cc1c[nH]c2ccccc12)C(=O)N[C@@H](Cc1c[nH]c2ccccc12)C(=O)N[C@@H](CCCCN)C(=O)N[C@@H](Cc1c[nH]c2ccccc12)C(=O)N[C@@H](CCCNC(=N)N)C(=O)N[C@@H](CCCNC(=N)N)C(=O)N[C@@H](Cc1c[nH]c2ccccc12)C(=O)N[C@H](C(N)=O)C(C)C [HHC77, IWWKWRRWV] (H-IWWKWRRWV-NH2; N-terminus assumed) next?
Outgoing: 12

Incoming: // repeat for CC[C@H](C)[C@H](NC(=O)[C@H](CCCNC(=N)N)NC(=O)[C@H](C)NC(=O)[C@H](CC(C)C)NC(=O)[C@@H](N)CCCNC(=N)N)C(=O)N[C@H](C(=O)N[C@H](C(=O)N[C@H](C(=O)N[C@@H](CCCNC(=N)N)C(=O)N[C@H](C(=O)N[C@@H](C)C(=O)N[C@@H](CCCNC(=N)N)C(N)=O)C(C)C)[C@@H](C)CC)C(C)C)C(C)C [Bac2A, RLARIVVIRVAR-NH2, reference compound] (H-RLARIVVIRVAR-NH2; N-terminus assumed) and report
Outgoing: 192
